This document collects AC50 values reported for Muscarinic acetylcholine receptor M3 (Homo sapiens).

As a guide, the following entries are already answered.
# compound, measured result
measured = [
    ("C=CCN1CCc2nc(N)sc2CC1 [TALIPEXOLE]", "> 30 µM"),
    ("C=C1c2cccc(O)c2C(=O)C2=C(O)[C@]3(O)C(=O)C(C(N)=O)=C(O)[C@@H](N(C)C)[C@@H]3[C@@H](O)[C@H]12 [METHACYCLINE]", "> 30 µM"),
]

Answer briefly: AC50 recorded on Muscarinic acetylcholine receptor M3 (Homo sapiens) for CCOC(=O)c1ccc(C#Cc2ccc3c(c2)C(C)(C)CCS3)nc1 [TAZAROTENE]
Sequence (P20309 whole entry): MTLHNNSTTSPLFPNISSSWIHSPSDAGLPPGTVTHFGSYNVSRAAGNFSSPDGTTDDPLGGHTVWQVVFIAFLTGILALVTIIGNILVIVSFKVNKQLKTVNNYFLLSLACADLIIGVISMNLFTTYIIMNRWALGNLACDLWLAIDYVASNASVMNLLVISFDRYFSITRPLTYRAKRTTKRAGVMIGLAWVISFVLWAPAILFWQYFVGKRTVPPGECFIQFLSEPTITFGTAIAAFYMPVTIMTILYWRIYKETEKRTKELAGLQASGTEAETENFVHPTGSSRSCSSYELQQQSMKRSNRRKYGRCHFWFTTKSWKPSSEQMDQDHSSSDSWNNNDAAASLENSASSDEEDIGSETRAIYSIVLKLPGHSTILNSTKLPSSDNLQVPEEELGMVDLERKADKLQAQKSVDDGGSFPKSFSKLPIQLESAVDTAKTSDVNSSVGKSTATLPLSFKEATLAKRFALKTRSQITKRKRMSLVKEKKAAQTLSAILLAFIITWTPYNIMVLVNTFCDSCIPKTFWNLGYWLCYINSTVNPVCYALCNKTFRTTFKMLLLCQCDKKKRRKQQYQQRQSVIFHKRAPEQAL
> 30 µM
